Molecular target: T1, EsCas13d, nuclease-dead (Eubacterium siraeum, UniProt B0MS50, R295A;H300A;R849A;H854A)
T1 sequence: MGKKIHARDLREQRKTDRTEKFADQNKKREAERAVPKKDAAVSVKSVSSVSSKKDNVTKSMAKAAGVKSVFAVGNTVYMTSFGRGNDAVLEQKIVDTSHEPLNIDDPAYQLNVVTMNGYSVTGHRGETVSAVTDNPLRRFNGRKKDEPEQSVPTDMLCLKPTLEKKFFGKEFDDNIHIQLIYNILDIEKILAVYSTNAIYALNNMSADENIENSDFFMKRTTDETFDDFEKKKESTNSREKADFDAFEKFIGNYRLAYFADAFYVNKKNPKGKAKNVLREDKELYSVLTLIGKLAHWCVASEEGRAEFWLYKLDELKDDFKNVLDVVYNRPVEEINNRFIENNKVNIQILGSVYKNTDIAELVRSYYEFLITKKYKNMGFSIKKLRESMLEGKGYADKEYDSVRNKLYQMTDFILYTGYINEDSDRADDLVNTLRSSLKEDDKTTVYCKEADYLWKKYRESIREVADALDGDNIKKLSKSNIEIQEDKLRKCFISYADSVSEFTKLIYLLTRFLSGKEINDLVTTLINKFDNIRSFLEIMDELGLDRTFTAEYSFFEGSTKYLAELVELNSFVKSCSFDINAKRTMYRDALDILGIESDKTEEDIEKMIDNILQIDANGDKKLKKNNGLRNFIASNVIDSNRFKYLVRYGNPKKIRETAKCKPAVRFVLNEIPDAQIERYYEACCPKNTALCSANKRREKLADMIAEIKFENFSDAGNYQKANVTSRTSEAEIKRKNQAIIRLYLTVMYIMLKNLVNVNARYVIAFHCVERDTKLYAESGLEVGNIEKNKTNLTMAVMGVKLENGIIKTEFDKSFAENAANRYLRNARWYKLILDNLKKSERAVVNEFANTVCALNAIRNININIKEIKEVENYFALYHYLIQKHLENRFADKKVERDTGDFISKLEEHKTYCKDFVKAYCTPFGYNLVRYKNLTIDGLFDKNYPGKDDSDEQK
Experiment: crRNA (strand 1, pre-loaded); Mg2+; 40 mM Tris-HCl pH 7.5, 150 mM NaCl, 6 mM MgCl2, 1 mM DTT, 0.1% Tween-20, 0.2 mg/ml BSA; 25 C; 10 min per concentration, then washed
Settings: tags: His6-TwinStrep-SUMO cleaved; N-terminal SNAP kept (SNAP-Surface 488); label: 3' end held by stalled T7 RNA polymerase
Here the recorded pKd is given for each entry.
Friendly reminder that pKd comes from taking -log10 of the concentration in mol/L.

binder	pKd
target 1 insG 3' of 16,insA 3' of 7 (mixed) RNA 1: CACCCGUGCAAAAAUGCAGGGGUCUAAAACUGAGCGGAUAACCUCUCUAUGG RNA 2: GGGAAUGGAUCCACAUCUACGAAUUCGUACCAUAGAGGAGGUUAUCACGCUCACCGAGAUCGGAAGAGCACACGU	7.84

Record request: pKd value, item target 1 insC 3' of 12,insU 3' of 6 (mixed) RNA 1: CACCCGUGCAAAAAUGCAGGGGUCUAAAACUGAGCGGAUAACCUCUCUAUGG RNA 2: GGGAAUGGAUCCACAUCUACGAAUUCGUACCAUAGAGAGGCUUAUCCUGCUCACCGAGAUCGGAAGAGCACACGU
7.79

Thanks! And target 1 G12A,A14C (mixed) RNA 1: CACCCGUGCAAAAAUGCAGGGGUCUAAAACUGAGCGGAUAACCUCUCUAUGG RNA 2: GGGAAUGGAUCCACAUCUACGAAUUCGUACCAUAGAGCGAUUAUCCGCUCACCGAGAUCGGAAGAGCACACGU ?
7.52

Thanks! And target 3 insC 3' of 2,insU 3' of 1 (mixed) RNA 1: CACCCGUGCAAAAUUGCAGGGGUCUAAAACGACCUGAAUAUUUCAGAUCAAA RNA 2: GGGAAUGGAUCCACAUCUACGAAUUCGUUUUUGAUCUGAAAUAUUCAGGUCCUUGCAGAUCGGAAGAGCACACGU ?
7.08

# credit: paper PMC10786891
